Numbers sourced from patent US20150004189A1.

Below is a list of entries, each paired with its recorded IC50 value.
- Experimental Target: HLA DQ molecule DQB1*0502 (human)
- Assay Summary: inhibition of radiolabeled peptide binding to purified HLA class II
Number plus unit, in that order.

Example cases with answers are listed next.
1. KELKGAYVYFASDAS [Cla h 8 (236-250) peptide KELKGAYVYFASDAS, Peptide ID 3324.0598]: 4670 nM
2. GGRLAFQEFMIVPSG [Cla h 6 (161-175) peptide GGRLAFQEFMIVPSG, Peptide ID 3324.0588]: 4950 nM
3. NGNELLLDLSLTKVN [Fel d 1 2 (36-50) peptide NGNELLLDLSLTKVN, Peptide ID 3324.1055]: 2860 nM
4. DEYVEQVAQYKALPV [Fel d 1 1 (41-55) peptide DEYVEQVAQYKALPV, Peptide ID 3324.1049]: 337 nM
5. IFYDVFFAVANGNEL [Fel d 1 2 (26-40) peptide IFYDVFFAVANGNEL, Peptide ID 3324.1052]: 6650 nM
6. FSGVAATESAYLAYR [Der f 1 (136-150) peptide FSGVAATESAYLAYR, Peptide ID 3324.0666]: 1210 nM

The record that follows has no IC50 shown yet.
Problem: # get_value(readout='IC50', item= AFLLLGLAGNSSPSA [Cla h 5 (6-20) peptide, Peptide ID 3324.0576] )
Solution: 718 nM
